Tested system: TYR from Agaricus bisporus (AbTYR) (Agaricus bisporus, UniProt C7FF04)
Sequence (C7FF04 1-392 limits assumed): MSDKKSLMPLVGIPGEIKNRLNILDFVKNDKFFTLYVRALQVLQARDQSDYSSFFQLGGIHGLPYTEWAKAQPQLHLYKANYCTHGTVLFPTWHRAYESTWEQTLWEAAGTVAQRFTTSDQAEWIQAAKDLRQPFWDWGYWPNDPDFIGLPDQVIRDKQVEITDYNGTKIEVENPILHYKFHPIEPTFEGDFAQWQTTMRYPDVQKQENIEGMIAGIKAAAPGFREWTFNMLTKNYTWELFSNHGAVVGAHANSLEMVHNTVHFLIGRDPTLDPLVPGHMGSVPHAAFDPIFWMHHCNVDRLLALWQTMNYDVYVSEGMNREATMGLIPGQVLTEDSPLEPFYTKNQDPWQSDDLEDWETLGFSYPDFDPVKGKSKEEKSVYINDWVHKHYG
Assay details: Inhibition of diphenolase activity of AbTYR (L-DOPA as substrate);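 also: absorbance measured spectrophotometrically with L-DOPA as substrate, inhibition expressed as percent relative to control sample, IC50 interpolated from dose-response curves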
Test context: IC50 [μM]±SD, inhibition of diphenolase activity of AbTYR, L-DOPA substrate, three replicates
Reported property: IC50 (µM)
Reply with just the number (in µM).

Known IC50 results, listed for orientation:
O=C(c1cccc([N+](=O)[O-])c1)N1CCN(c2ccc(O)cc2)CC1 [compound 29]: 21.8
Nc1ccc(C(=O)N2CCN(c3ccc(O)cc3)CC2)c(N)c1 [compound 35]: 82.4
O=C(c1ccccc1)N1CCN(c2ccc(O)cc2)CC1 [compound 2]: 73.2
COc1cccc(C(=O)N2CCN(c3ccc(O)cc3)CC2)c1 [compound 22]: 9.8
O=C(c1cccc(Br)c1)N1CCN(c2ccc(O)cc2)CC1 [compound 12]: 16.4
O=C(c1ccc(Br)cc1)N1CCN(c2ccc(O)cc2)CC1 [compound 13]: 39.6
O=C(c1ccc(Br)cc1Br)N1CCN(c2ccc(O)cc2)CC1 [compound 26]: 9.5
Cc1ccc(C(=O)N2CCN(c3ccc(O)cc3)CC2)c(C)c1 [compound 27]: 33.7

Which measured IC50 value corresponds to O=C(c1ccc(C(F)(F)F)cc1)N1CCN(c2ccc(O)cc2)CC1 [compound 19] ?
35.1

###

Reported property: melting point

Nc1ccc(C(=O)N2CCN(c3ccc(O)cc3)CC2)c(N)c1: 80 to 81 °C
O=C(c1cccc(C(F)(F)F)c1)N1CCN(c2ccc(O)cc2)CC1: 127 to 128 °C
O=C(c1ccccc1[N+](=O)[O-])N1CCN(c2ccc(O)cc2)CC1: 184 to 185 °C
O=C(c1ccc(Br)cc1)N1CCN(c2ccc(O)cc2)CC1: 190 to 191 °C
O=C(c1ccccc1F)N1CCN(c2ccc(O)cc2)CC1: 142 to 143 °C

Query: melting point; subject: Nc1cccc(C(=O)N2CCN(c3ccc(O)cc3)CC2)c1
95 to 96 °C

Requested field: melting point. Item: O=C(c1ccc(Cl)cc1Cl)N1CCN(c2ccc(O)cc2)CC1
177 to 178 °C

Quick one: melting point of Cc1ccc(C(=O)N2CCN(c3ccc(O)cc3)CC2)cc1 ?
162 to 163 °C

###

Tested system: TYR from Agaricus bisporus (AbTYR) (Agaricus bisporus)
Assay details: Inhibition of diphenolase activity of AbTYR (L-DOPA as substrate)
Test context: IC50 [μM]±SD, inhibition of diphenolase activity of AbTYR, L-DOPA substrate, three replicates
Examples of compounds with documented IC50 follow.
# output: bare number, implied unit µM

Record excerpt, results attached:
O=C(c1ccccc1F)N1CCN(c2ccc(O)cc2)CC1: 15.2
Nc1cccc(C(=O)N2CCN(c3ccc(O)cc3)CC2)c1: 35.7
O=C(c1ccc(Cl)cc1)N1CCN(c2ccc(O)cc2)CC1: 8.9
O=C(c1ccc([N+](=O)[O-])cc1)N1CCN(c2ccc(O)cc2)CC1: 23.2
Nc1ccccc1C(=O)N1CCN(c2ccc(O)cc2)CC1: 66.4
O=C(c1cccc(Cl)c1)N1CCN(c2ccc(O)cc2)CC1: 9
O=C(c1ccc([N+](=O)[O-])cc1[N+](=O)[O-])N1CCN(c2ccc(O)cc2)CC1: 7.6
O=C(c1ccc(Cl)cc1Cl)N1CCN(c2ccc(O)cc2)CC1: 1.5

# context switch: different compound, same IC50
Value lookup for IC50; key = O=C(c1ccc(-c2ccccc2)cc1)N1CCN(c2ccc(O)cc2)CC1
128

Where do these numbers come from? They come from paper PMC9828493.
